Test: chemical genetic growth profiling, strain panel (AID 1159580);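 also: tested at 20 µM; growth read once vehicle control cultures reached saturation at 30 °C; 1 = growth at the plate median or of vehicle wells; lower values mean less growth of the strain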
Details: S. cerevisiae deletion strains, growth OD, locus YDR363W, strain ESC2, active compounds read low
In all, about 5,500 compounds went through this assay and about 2,000 (36%) were called active. Inconclusive results (about 18%) are left out. Some of the results follow.
Field 'label' (enum: Met / Not met). Set to Met when normalized growth is strictly under 1; else Not met.

> print(dat)
                                   molecule  class.label
1  OCCN1CCN(CC/C=C2/c3ccccc3Sc3ccc(C(F)(F)F)cc32)CC1          Met
2        Cc1ccc(N(CC2=NCCN2)c2cccc(O)c2)cc1      Not met
3  CCCCCN(CCCCC)C(=O)C(CCC(=O)O)NC(=O)c1ccc(Cl)c(Cl)c1 (configuration not stated)      Not met
4  COc1ccccc1N1CCN(CC(O)COc2cccc3ccccc23)CC1 (configuration not stated)          Met

---

Overview of recorded normalized growth for various compounds
Experiment: chemical genetic growth profiling, strain panel (AID 1159580)
Settings: S. cerevisiae deletion strains, growth OD, locus YLR320W, strain mms22, active compounds read low
The whole screen tested about 5,500 compounds, of which about 2,000 (36%) were called active. About 18% were inconclusive and are not listed. This is one part of the list.
OBSERVABLE: normalized growth

> print(dat)
                                   compound  meas.value
1                       NCCc1c[nH]c2ccccc12       0.985
2  C=C(C)[C@@H]1CC[C@]2(CO)CC[C@]3(C)[C@H](CCC4[C@@]5(C)CC[C@H](O)C(C)(C)C5CC[C@]43C)C12 (some centres not stated)        1.04
3       O=C(O)c1cc(=O)c2c(Cl)cc(Cl)cc2[nH]1        1.03
4  C[C@]12CCC(=O)C=C1CCC1C2C(=O)C[C@@]2(C)C1CC[C@]2(O)C(=O)CO (some centres not stated)       0.988
5  CNC(Cc1c[nH]c2ccccc12)C(=O)O (configuration not stated)        1.02
6  COc1cc2c(cc1OC)[C@@H]1C(=O)c3ccc4c(c3O[C@@H]1CO2)CC(C(C)C)O4 (some centres not stated)       0.923
7  CN(C)CCc1c[nH]c2ccc(C[C@H]3COC(=O)N3)cc12        1.01

---

Experiment: chemical genetic growth profiling, strain panel (AID 1159580)
Conditions: S. cerevisiae deletion strains, growth OD, locus YMR205C, strain PFK2, active compounds read low
Out of some 5,500 compounds screened, about 2,000 (36%) were called active. Another 18% or so got no clear call; they are omitted. Some of the results follow.
OBSERVABLE: normalized growth

> print(dat)
                                   molecule  meas.value
1  COc1ccc([C@H]2COc3c(ccc(O)c3OC)C2)c(OC)c1O       0.978
2        CCOc1ccc(C(=O)c2ccc(OC)c(O)c2O)cc1        1.01
3            O=C(O)c1cc(=O)c2cccc(O)c2[nH]1        1.02
4                                NCCNCCNCCN        1.02
5             COc1ccc(C(=O)c2ccccc2)c(O)c1O       0.991
6  C#CC1(O)CCC2C3CCC4=CC(=O)CCC4(C)C3CCC21C (stereo unspecified)       0.991

---

Assay: chemical genetic growth profiling, strain panel (AID 1159580);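 also: tested at 20 µM; growth read once vehicle control cultures reached saturation at 30 °C; 1 = growth at the plate median or of vehicle wells; lower values mean less growth of the strain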
Conditions: S. cerevisiae deletion strains, growth OD, locus YKL160W, strain elf1, active compounds read low
Hit rate of the full screen: of about 5,500 compounds, about 2,000 (36%) were called active. Not shown: some 18% with an inconclusive outcome. The list shows a part of the results.
Overview of recorded normalized growth for various compounds
OBSERVABLE: normalized growth

> print(dat)
                                   compound         observable  meas.value
1               c1ccc([C@H]2CN3CCSC3=N2)cc1  normalized growth        1.01
2  CCc1cccc2c3c([nH]c12)C(CC)(CC(=O)O)OCC3 (centres undefined)  normalized growth       0.975
3         COc1cc(NS(=O)(=O)c2ccc(N)cc2)ncn1  normalized growth        0.98
4  C[C@]12CCC(=O)C=C1CCC1C2C(=O)C[C@@]2(C)C1CC[C@]2(O)C(=O)CO (some centres undefined)  normalized growth           1

---

Test: chemical genetic growth profiling, strain panel (AID 1159580);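 also: tested at 20 µM; growth read once vehicle control cultures reached saturation at 30 °C; 1 = growth at the plate median or of vehicle wells; lower values mean less growth of the strain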
Conditions: S. cerevisiae deletion strains, growth OD, locus YLL026W, active compounds read low
In all, about 5,500 compounds went through this assay and about 2,000 (36%) were called active. About 18% were inconclusive and are not listed. This is one part of the list. *1 amine or outer side, *2 acyl side, *3 side chain or, on linkers, in order; H or OH if unused. Where a SMILES comes first, the peptide text is derived from it. Bridges are numbered along the chain shown (N, C = ends). [ ]: non-standard residue; d: D form. The star is where a group is joined. ξ: configuration not given here. ΔAla(E,3-NHCONH2) = NC(=O)N/C=C(/N)C(=O)O; X2 = NC1=NCCC(C(N[*:1])C(=O)[*:2])N1; ξβ3hOrn = NCCCC(N)CC(=O)*; Dap = NC[CH](N)C(=O)O
Field 'label' (enum: Y / N). Set to Y when normalized growth is strictly under 1; else N.

COMPOUND	CLASS_LABEL
NCCCC(N)CC(=O)NCC1NC(=O)C(CO)NC(=O)C(N)CNC(=O)C(C2CCN=C(N)N2)NC(=O)/C(=C\NC(N)=O)NC1=O (stereo not drawn) (H-[Dap]S[Dap](ξβ3hOrn)[ΔAla(E,3-NHCONH2)][X2]; lactam 1-C; configuration not given here)	N
NC(=O)N1c2ccccc2C=Cc2ccccc21	N
NCCc1cc(O)c(O)cc1O	Y

---

Test: chemical genetic growth profiling, strain panel (AID 1159580);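 also: tested at 20 µM; growth read once vehicle control cultures reached saturation at 30 °C; 1 = growth at the plate median or of vehicle wells; lower values mean less growth of the strain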
Conditions: S. cerevisiae deletion strains, growth OD, locus YEL061C, strain CIN8 (second series), active compounds read low
Out of some 5,500 compounds screened, about 2,000 (36%) were called active. Another 18% or so got no clear call; they are omitted. This is one part of the list. *1 amine or outer side, *2 acyl side, *3 side chain or, on linkers, in order; H or OH if unused. Where a SMILES comes first, the peptide text is derived from it. Bridges are numbered along the chain shown (N, C = ends). [ ]: non-standard residue; d: D form. The star is where a group is joined. ξ: configuration not given here. ΔAla(E,3-NHCONH2) = NC(=O)N/C=C(/N)C(=O)O; X2 = NC1=NCCC(C(N[*:1])C(=O)[*:2])N1; ξβ3hOrn = NCCCC(N)CC(=O)*; Dap = NC[CH](N)C(=O)O
Overview of recorded normalized growth for various compounds
OBSERVABLE: normalized growth

COMPOUND	MEAS_VALUE
CCN(CC)CCNC(=O)c1cc(Cl)c(N)cc1OC	0.978
COc1cc(-c2coc3cc(O[C@@H]4O[C@H](CO)[C@@H](O)[C@H](O)[C@H]4O)c(OC)c(O)c3c2=O)cc(O)c1OC	1
CCOc1ccc(C(=O)c2cc(O)c(OC)c(OC)c2O)cc1	0.992
NCCCC(N)CC(=O)NCC1NC(=O)C(CO)NC(=O)C(N)CNC(=O)C(C2CCN=C(N)N2)NC(=O)/C(=C\NC(N)=O)NC1=O (stereo not drawn) (H-[Dap]S[Dap](ξβ3hOrn)[ΔAla(E,3-NHCONH2)][X2]; lactam 1-C; configuration not given here)	1.02
CC(=O)Oc1ccccc1C(=O)O	0.996
CCCCCCCCCCCCCCCCCCOCC(O)CO (stereo not given)	0.992
OC(c1cc(C(F)(F)F)nc2c(C(F)(F)F)cccc12)C1CCCCN1 (stereo not given)	1
CCOc1ccc(C(=O)c2ccc(OC)c(O)c2O)cc1	1.02
COc1cc2c(cc1O)CCNC2C (stereo not given)	0.99
CCCc1nc2c(C)cc(-c3nc4ccccc4n3C)cc2n1Cc1ccc(-c2ccccc2C(=O)O)cc1	1.02
CC(=O)Oc1cc2c(c(C)c1OC(C)=O)CC1OC13C2(C)CCC1(C)C2CC(C)(C(=O)O)CCC2(C)CCC13C (stereo not given)	1.02
CC1(C)S[C@@H]2[C@H](NC(=O)Cc3ccccc3)C(=O)N2[C@H]1C(=O)O	1.02
Cc1cc(C(C)(C)C)cc(C)c1CC1=NCCN1	0.997
Cc1onc(-c2c(Cl)cccc2Cl)c1C(=O)N[C@@H]1C(=O)N2[C@@H]1SC(C)(C)[C@@H]2C(=O)O	0.971
COc1ccc(C(=O)c2ccccc2)c(O)c1O	0.974
